Kindly state Vd for each of the entries shown.
- Test Name: Volume of distribution in Beagle dog
- Format: ADME, Canis lupus familiaris
- Test Settings: in vivo
Give bare numbers, in L/kg.

Worked examples, 4 compounds total:
| Record Smiles | Property | Experimental Result |
| --- | --- | --- |
| CCn1c(-c2cnc(C)nc2)nc2c(N[C@H]3CCN(C(=O)C4CCC4)C3)ncnc21 | Vd | 1.3 |
| CCn1c(-c2cnc(C)nc2)nc2c(O[C@H]3CCN(C(=O)N4CC(OC)C4)C3)ncnc21 | Vd | 1.4 |
| CCn1c(-c2cnc(C)nc2)nc2c(O[C@H]3CCN(C(=O)c4cocn4)C3)ncnc21 | Vd | 1.7 |
| CCn1c(-c2cnc(C)nc2)nc2c(N[C@H]3CCN(C(=O)C4CC4)C3)ncnc21 | Vd | 1.5 |

Turning now to a further record.
Form: compound = CCn1c(-c2cnc(C)nc2)nc2c(O[C@H]3CCN(C(=O)[C@H]4C[C@@H](OC)C4)C3)ncnc21 ; Vd = 0.6

====

- Target Of Assay: PI3-kinase p110-delta/p85-alpha (Homo sapiens)
- Sequence (P27986 whole entry): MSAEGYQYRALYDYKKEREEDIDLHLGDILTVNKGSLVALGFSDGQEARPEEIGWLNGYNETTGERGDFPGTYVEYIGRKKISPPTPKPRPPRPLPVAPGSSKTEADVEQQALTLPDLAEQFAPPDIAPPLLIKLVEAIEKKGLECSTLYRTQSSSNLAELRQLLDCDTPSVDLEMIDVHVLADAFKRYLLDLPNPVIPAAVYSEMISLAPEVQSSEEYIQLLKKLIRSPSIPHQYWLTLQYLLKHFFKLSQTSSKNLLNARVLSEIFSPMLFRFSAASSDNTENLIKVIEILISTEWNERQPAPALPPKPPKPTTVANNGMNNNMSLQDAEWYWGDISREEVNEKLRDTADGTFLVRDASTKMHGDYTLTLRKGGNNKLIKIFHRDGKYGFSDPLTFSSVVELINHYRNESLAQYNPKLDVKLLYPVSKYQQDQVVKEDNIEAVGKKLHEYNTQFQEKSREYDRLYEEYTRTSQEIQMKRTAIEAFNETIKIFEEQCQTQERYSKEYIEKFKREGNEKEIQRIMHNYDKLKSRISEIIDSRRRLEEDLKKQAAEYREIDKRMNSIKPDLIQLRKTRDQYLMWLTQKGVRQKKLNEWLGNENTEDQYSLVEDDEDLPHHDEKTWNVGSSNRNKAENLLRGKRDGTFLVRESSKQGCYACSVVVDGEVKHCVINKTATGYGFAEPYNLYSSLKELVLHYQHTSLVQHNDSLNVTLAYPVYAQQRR
- Sequence (O00329 whole entry): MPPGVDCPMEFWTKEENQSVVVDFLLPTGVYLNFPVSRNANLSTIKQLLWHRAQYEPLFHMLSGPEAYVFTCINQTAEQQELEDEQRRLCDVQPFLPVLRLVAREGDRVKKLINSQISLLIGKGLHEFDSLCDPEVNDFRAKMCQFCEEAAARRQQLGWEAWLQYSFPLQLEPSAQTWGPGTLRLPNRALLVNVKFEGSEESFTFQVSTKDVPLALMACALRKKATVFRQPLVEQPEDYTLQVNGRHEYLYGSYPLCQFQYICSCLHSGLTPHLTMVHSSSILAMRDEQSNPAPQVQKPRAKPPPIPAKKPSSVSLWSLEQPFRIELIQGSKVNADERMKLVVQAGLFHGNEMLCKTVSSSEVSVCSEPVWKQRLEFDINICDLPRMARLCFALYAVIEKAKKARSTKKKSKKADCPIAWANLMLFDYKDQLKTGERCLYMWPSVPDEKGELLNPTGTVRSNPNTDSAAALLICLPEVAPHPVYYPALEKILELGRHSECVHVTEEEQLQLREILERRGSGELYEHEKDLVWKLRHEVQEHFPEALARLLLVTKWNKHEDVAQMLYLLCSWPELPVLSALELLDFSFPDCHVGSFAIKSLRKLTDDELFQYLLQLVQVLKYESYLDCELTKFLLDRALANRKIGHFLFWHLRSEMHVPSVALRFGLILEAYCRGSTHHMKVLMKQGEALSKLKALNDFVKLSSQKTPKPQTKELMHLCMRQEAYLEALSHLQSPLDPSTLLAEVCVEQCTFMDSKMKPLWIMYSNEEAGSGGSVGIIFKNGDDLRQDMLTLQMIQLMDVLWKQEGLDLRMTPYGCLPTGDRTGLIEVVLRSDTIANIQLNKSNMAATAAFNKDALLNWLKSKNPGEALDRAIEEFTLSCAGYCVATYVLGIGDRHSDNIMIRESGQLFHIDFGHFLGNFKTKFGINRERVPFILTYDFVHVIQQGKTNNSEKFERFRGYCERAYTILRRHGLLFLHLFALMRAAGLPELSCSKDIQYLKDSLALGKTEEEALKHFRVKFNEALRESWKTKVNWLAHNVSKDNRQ
- Test Name: Inhibition of N-terminal His6-tagged recombinant full length human p110delta/untagged recombinant full length human p85alpha expressed in baculovirus infected Sf21 insect cells using PIP2 as substrate preincubated for 15 mins followed by substrate addition and measured after 1 hr by HTRF assay
pIC50: −log10 of the molar value.
pIC50 of 8 or higher: yes. Under 8: no.

Some solved entries appear below for comparison.
| Record Smiles | Discrete Label |
| --- | --- |
| CCn1c(-c2cnc(C)nc2)nc2c(O[C@H]3CCN(C(=O)C4CCC4)C3)ncnc21 | yes |
| CCn1c(-c2ccc(C(F)(F)F)nc2)nc2c(O[C@H]3CCN(C(=O)C4CC4)C3)ncnc21 | yes |
| CCCn1c(-c2cnc(C)nc2)nc2c(N[C@H]3CCN(C(=O)CC)C3)ncnc21 | no |

Would you kindly look at the next entry?
Check if pIC50 >= 8 (inclusive). Item: CCn1c(-c2cnc(C)nc2)nc2c(N[C@H]3CCN(C(=O)C4CC(F)(F)C4)C3)ncnc21
yes

====

- Test Name: Intrinsic clearance in Wistar Han rat at 0.5 mg/kg, iv or 1 mg/kg, po
- Type: ADME, organism-based
- Test Settings: in vivo
Exercise: for every item that follows, state its recorded CL.
One number for each entry, in mL/min/kg.

Some solved entries appear below for comparison.
| Record Smiles | CL [mL/min/kg] |
| --- | --- |
| CCn1c(-c2ccc(C(F)(F)F)nc2)nc2c(O[C@H]3CCN(C(=O)[C@H]4C[C@@H](OC)C4)C3)ncnc21 | 130 |
| CCn1c(-c2cnc(C)nc2)nc2c(O[C@H]3CCN(C(=O)c4cocn4)C3)ncnc21 | 25 |
| CCn1c(-c2ccc(C(F)(F)F)nc2)nc2c(N[C@H]3CCN(C(=O)C4CC4)C3)ncnc21 | 104 |

// each molecule listed below needs its CL
1. CCn1c(-c2cnc(C)nc2)nc2c(N[C@H]3CCN(C(=O)[C@H]4C[C@@H](OC)C4)C3)ncnc21
2. CCn1c(-c2cnc(C)nc2)nc2c(N[C@H]3CCN(C(=O)C4CCC4)C3)ncnc21
3. CCn1c(-c2cnc(C)nc2)nc2c(N[C@H]3CCN(C(=O)C4CC4)C3)ncnc21

1. 81
2. 320
3. 64

Given item CCn1c(-c2cnc(C)nc2)nc2c(N[C@H]3CCN(C(=O)C4CCOCC4)C3)ncnc21 , the value recorded as its CL is 220
